- Tested system: hCDK1/B (Homo sapiens, UniProt P06493)
- Sequence (P06493 whole entry): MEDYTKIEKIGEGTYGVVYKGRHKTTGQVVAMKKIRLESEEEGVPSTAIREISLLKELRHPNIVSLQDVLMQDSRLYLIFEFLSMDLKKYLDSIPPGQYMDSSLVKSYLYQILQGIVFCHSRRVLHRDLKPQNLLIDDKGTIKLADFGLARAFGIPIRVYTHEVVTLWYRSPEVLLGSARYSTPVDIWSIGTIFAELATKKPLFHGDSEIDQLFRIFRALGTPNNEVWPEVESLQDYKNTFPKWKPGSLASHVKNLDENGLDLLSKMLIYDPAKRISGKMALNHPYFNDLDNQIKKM
- Sequence (P14635 whole entry partner): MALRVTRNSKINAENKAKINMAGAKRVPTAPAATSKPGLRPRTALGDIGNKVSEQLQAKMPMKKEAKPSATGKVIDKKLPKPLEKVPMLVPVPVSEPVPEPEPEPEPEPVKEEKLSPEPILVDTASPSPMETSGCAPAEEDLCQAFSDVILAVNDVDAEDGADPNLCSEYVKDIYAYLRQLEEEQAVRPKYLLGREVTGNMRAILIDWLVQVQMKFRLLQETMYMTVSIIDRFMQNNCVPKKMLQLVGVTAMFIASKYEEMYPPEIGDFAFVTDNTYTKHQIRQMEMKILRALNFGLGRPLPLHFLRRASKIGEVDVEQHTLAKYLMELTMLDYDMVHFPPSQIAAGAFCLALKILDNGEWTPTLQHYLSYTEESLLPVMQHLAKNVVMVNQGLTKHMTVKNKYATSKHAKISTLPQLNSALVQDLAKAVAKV
- Measurement protocol: hCDK1/B
- Format: biochemical
- Details: Table 2
Test readout: IC50

Compound: COc1cccc(OC)c1CNc1nccc(-c2c[nH]nc2C(C)C)n1 [Example 156]
IC50: ≥ 15 µM
--
Compound: CCC(C)Nc1nccc(-c2c[nH]nc2C(C)C)n1 (stereo not shown) [Example 171]
IC50: < 0.5 µM
--
Compound: CC(=O)NCCNc1nccc(-c2c[nH]nc2C)n1 [Example 123]
IC50: < 15 µM
--
Compound: Cc1cc(C)n(CCNc2nccc(-c3c[nH]nc3C(C)C)n2)n1 [Example 149]
IC50: < 10 µM
--
Compound: Cc1n[nH]cc1-c1ccnc(NCCOc2ccccc2)n1 [Example 98]
IC50: < 15 µM
--
Compound: Cc1n[nH]cc1-c1ccnc(NC2CCN(Cc3ccccc3)C2)n1 (stereo not shown) [Example 114]
IC50: < 10 µM
--
Compound: Cc1n[nH]cc1-c1ccnc(NCCC#N)n1 [Example 96]
IC50: < 15 µM
--
Compound: COc1cc(CNc2nccc(-c3c[nH]nc3C)n2)cc(OC)c1 [Example 133]
IC50: ≥ 15 µM

Task: So what does the record say about IC50 for CCC(C)Nc1nccc(-c2c[nH]nc2C)n1 (stereo not shown) [Example 110] ?
Result: < 10 µM

Task: Follow-up item: Cc1n[nH]cc1-c1ccnc(NCCc2cccnc2)n1 [Example 132]
Result: < 10 µM

====

- Tested system: hCDK1/B (Homo sapiens, UniProt P06493)
- Measurement protocol: hCDK1/B
- Type: biochemical
- Details: Table 1
Test readout: IC50

For orientation, consider the following solved cases.
Compound: CC(C)c1[nH]ncc1-c1ccnc(NCCN2CCOCC2)c1 [Example 32]
IC50: ≥ 15 µM

Compound: c1cc(-c2cn[nH]c2C2CCCC2)cc(NCC2CC2)n1 [Example 57]
IC50: < 5 µM

Task: So what does the record say about IC50 for CCC(C)c1[nH]ncc1-c1ccnc(NCc2ccccc2C)c1 (centres unmarked) [Example 81] ?
Result: < 5 µM

Task: Follow-up item: CCC(CC)c1[nH]ncc1-c1ccnc(NC2CCN(C)CC2)c1 [Example 73]
Result: < 5 µM

Task: Follow-up item: c1cc(-c2cn[nH]c2C2CCCC2)cc(NC2CCCCCC2)n1 [Example 55]
Result: < 5 µM

Task: Follow-up item: CC(C)c1[nH]ncc1-c1ccnc(NCc2ccc(F)cc2)c1 [Example 30]
Result: < 5 µM

Task: Follow-up item: CC(C)c1[nH]ncc1-c1ccnc(NCc2cc(F)cc(F)c2)c1 [Example 38]
Result: < 5 µM

Task: Follow-up item: CN1CCC(Nc2cc(-c3cn[nH]c3C3CC3)ccn2)CC1 [Example 80]
Result: < 15 µM

Task: Follow-up item: c1ccc(CCNc2cc(-c3cn[nH]c3C3CCCC3)ccn2)cc1 [Example 58]
Result: < 5 µM

Task: Follow-up item: CC(C)c1[nH]ncc1-c1ccnc(NCCN2CCCCC2)c1 [Example 31]
Result: ≥ 15 µM

Task: Follow-up item: COCCCNc1cc(-c2cn[nH]c2C(C)C)ccn1 [Example 11]
Result: < 5 µM

Task: Follow-up item: CC(C)c1[nH]ncc1-c1ccnc(NC2CCC2)c1 [Example 2]
Result: < 0.5 µM
